Give IC50 for every item shown.
Quick reminder: number only, in µM, skip the unit.

Notebook: pull reported IC50 for CK1ε (Homo sapiens (Human), UniProt P49674), entry CC(C)OC(=O)N1CCC(n2cnc(-c3ccc(F)cc3)c2-c2ccc3nc(NC(=O)c4ccnc(F)c4)cn3n2)CC1 [Compound 76]
0.0018

Notebook: pull reported IC50 for CK1ε (Homo sapiens (Human), UniProt P49674), entry Cc1nc(-c2ccc(F)cc2)c(-c2ccc3nc(NC(=O)c4ccc5ncccc5n4)cn3n2)n1C [Compound 312]
0.0196

Notebook: pull reported IC50 for CK1ε (Homo sapiens (Human), UniProt P49674), entry Cc1nc(-c2ccc(F)cc2)c(-c2ccc3nc(NC(=O)c4ccncn4)cn3n2)n1C [Compound 384]
0.0291

Notebook: pull reported IC50 for CK1ε (Homo sapiens (Human), UniProt P49674), entry O=C(Nc1cn2nc(-c3c(-c4ccc(F)cc4)nc4ccccn34)ccc2n1)c1ccncc1 [Compound 186]
0.0114

Notebook: pull reported IC50 for CK1ε (Homo sapiens (Human), UniProt P49674), entry O=C(Nc1cn2nc(-c3c(-c4ccc(F)cc4)ncn3C3CCN(Cc4ccon4)CC3)ccc2n1)c1ccnc(F)c1 [Compound 12]
0.000283

Notebook: pull reported IC50 for CK1ε (Homo sapiens (Human), UniProt P49674), entry O=C(Nc1cn2nc(-c3c(-c4ccc(F)cc4)nc4n3CCN(C(=O)C3CC3)C4)ccc2n1)c1ccnc(F)c1 [Compound 469]
0.0129

Notebook: pull reported IC50 for CK1ε (Homo sapiens (Human), UniProt P49674), entry CN1CCC(n2cnc(-c3ccc(F)cc3)c2-c2ccc3nc(NC(=O)c4ccnc(F)c4)cn3n2)CC1 [Compound 11]
0.000654

###

molecular target: UniProtKB P49674
Response field label: string, one of T (IC50 strictly below 6 nM) or F.

Say whether its IC50 is strictly beneath 6 nM. Entry: COCCN1CCC(n2c(C3CC3)nc(-c3ccc(F)cc3)c2-c2ccc3nc(NC(=O)c4ccnc(F)c4)cn3n2)CC1
F

Say whether its IC50 is strictly beneath 6 nM. Entry: Cc1nc(-c2ccc(F)cc2)c(-c2ccc3nc(NC(=O)N4CCCC4)cn3n2)n1C
F

Say whether its IC50 is strictly beneath 6 nM. Entry: Cc1nc(-c2ccc(F)cc2)c(-c2ccc3nc(NC(=O)c4c[nH]c5ccncc45)cn3n2)n1C
T

Say whether its IC50 is strictly beneath 6 nM. Entry: O=C(Nc1cn2nc(-c3c(-c4ccc(F)cc4)nc4ccccn34)ccc2n1)c1cc(Cl)ncc1C(F)(F)F
F

Say whether its IC50 is strictly beneath 6 nM. Entry: Cc1nc(-c2ccc(F)cc2)c(-c2ccc3nc(NC(=O)c4cccc5ncccc45)cn3n2)n1C
T

Say whether its IC50 is strictly beneath 6 nM. Entry: O=C(Nc1cn2nc(-c3c(-c4ccc(F)cc4)nc4ccc(N5CCOCC5)cn34)ccc2n1)c1ccnc(F)c1
T

Say whether its IC50 is strictly beneath 6 nM. Entry: Cc1nc(-c2ccc(F)cc2)c(-c2ccc3nc(NC(=O)c4ccon4)cn3n2)n1C
F

Say whether its IC50 is strictly beneath 6 nM. Entry: Cc1nc(-c2ccc(F)cc2)c(-c2ccc3nc(NC(=O)c4snnc4-c4ccccc4)cn3n2)n1C
F

Say whether its IC50 is strictly beneath 6 nM. Entry: O=C(Nc1cn2nc(-c3c(-c4ccc(F)cc4)nc4n3CCNC4)ccc2n1)c1cccc(-c2cccnc2)c1
T

Say whether its IC50 is strictly beneath 6 nM. Entry: CC(C)(C(=O)N1CCn2c(nc(-c3ccc(F)cc3)c2-c2ccc3nc(NC(=O)c4ccnc(F)c4)cn3n2)C1)C(F)(F)F
T

Say whether its IC50 is strictly beneath 6 nM. Entry: CC(C)CCN1CCC(n2cnc(-c3ccc(F)cc3)c2-c2ccc3nc(NC(=O)c4ccnc(F)c4)cn3n2)CC1
F

Say whether its IC50 is strictly beneath 6 nM. Entry: Cc1nc(-c2ccncc2)sc1C(=O)Nc1cn2nc(-c3c(-c4ccc(F)cc4)nc4ccccn34)ccc2n1
T

Say whether its IC50 is strictly beneath 6 nM. Entry: O=C(Nc1cn2nc(-c3c(-c4ccc(F)cc4)ncn3C3CCN(CCCF)CC3)ccc2n1)c1cc(F)nc(F)c1
T

Say whether its IC50 is strictly beneath 6 nM. Entry: Cc1nc(-c2ccc(F)cc2)c(-c2ccc3nc(NC(=O)c4ccnc(F)c4)cn3n2)n1C1CCN(CCCF)CC1
F

Say whether its IC50 is strictly beneath 6 nM. Entry: O=C(Nc1cn2nc(-c3c(-c4ccc(F)cc4)ncn3C3CCN(CCO)CC3)ccc2n1)c1ccnc(F)c1
T

Say whether its IC50 is strictly beneath 6 nM. Entry: O=C(Nc1cn2nc(-c3c(-c4ccc(F)cc4)ncn3C3COC3)ccc2n1)c1ccnc(F)c1
T

Say whether its IC50 is strictly beneath 6 nM. Entry: Cc1nc(-c2ccc(F)cc2)c(-c2ccc3nc(NC(=O)c4cc5c(F)cccc5[nH]4)cn3n2)n1C
F

Say whether its IC50 is strictly beneath 6 nM. Entry: O=C(Nc1cn2nc(-c3c(-c4ccc(F)cc4)ncn3CCOCC(F)(F)F)ccc2n1)c1ccnc(F)c1
T

Say whether its IC50 is strictly beneath 6 nM. Entry: Cc1c[nH]c(C(=O)Nc2cn3nc(-c4c(-c5ccc(F)cc5)nc(C)n4C)ccc3n2)c1
T

Say whether its IC50 is strictly beneath 6 nM. Entry: Cc1nc(-c2ccc(F)cc2)c(-c2ccc3nc(NC(=O)Nc4ccc(C#N)cc4)cn3n2)n1C
F

Say whether its IC50 is strictly beneath 6 nM. Entry: NC(=O)Cn1cnc(-c2ccc(F)cc2)c1-c1ccc2nc(NC(=O)c3ccnc(F)c3)cn2n1
F

Say whether its IC50 is strictly beneath 6 nM. Entry: Cc1nc(-c2ccc(F)cc2)c(-c2ccc3nc(NC(=O)c4ccno4)cn3n2)n1C
F

Say whether its IC50 is strictly beneath 6 nM. Entry: O=C(Nc1cn2nc(-c3c(-c4ccc(F)cc4)ncn3C3CCN(Cc4cc[nH]n4)CC3)ccc2n1)c1ccnc(F)c1
T

Say whether its IC50 is strictly beneath 6 nM. Entry: Cc1nc(-c2ccc(F)cc2)c(-c2ccc3nc(NC(=O)c4cccc5cccnc45)cn3n2)n1C
F

Say whether its IC50 is strictly beneath 6 nM. Entry: O=C(Nc1cn2nc(-c3c(-c4ccc(F)cc4)ncn3-c3cccnc3)ccc2n1)c1cc(F)nc(F)c1
F

Say whether its IC50 is strictly beneath 6 nM. Entry: CS(=O)(=O)CC(=O)N1CCC(n2cnc(-c3ccc(F)cc3)c2-c2ccc3nc(NC(=O)c4ccnc(F)c4)cn3n2)CC1
T

Say whether its IC50 is strictly beneath 6 nM. Entry: CCc1nc(-c2ccc(F)cc2)c(-c2ccc3nc(NC(=O)c4ccnc(F)c4)cn3n2)n1CC(F)F
F

Say whether its IC50 is strictly beneath 6 nM. Entry: Cc1nc(-c2ccc(F)cc2)c(-c2ccc3nc(NC(=O)c4cc5ccccc5[nH]4)cn3n2)n1C
F

###

target: CK1ε (Homo sapiens (Human))
Sequence (P49674 whole entry): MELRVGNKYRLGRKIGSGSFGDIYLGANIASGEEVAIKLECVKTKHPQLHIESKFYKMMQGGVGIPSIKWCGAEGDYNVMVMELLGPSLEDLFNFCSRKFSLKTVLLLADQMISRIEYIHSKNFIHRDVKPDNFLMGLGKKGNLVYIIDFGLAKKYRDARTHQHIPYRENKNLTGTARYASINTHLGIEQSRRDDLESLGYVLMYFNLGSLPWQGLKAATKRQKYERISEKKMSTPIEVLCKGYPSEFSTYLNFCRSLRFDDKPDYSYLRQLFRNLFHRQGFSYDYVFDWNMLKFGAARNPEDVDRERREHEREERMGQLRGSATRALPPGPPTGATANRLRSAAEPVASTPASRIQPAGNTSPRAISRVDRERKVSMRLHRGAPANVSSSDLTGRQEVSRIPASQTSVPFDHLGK
Give IC50 for every item shown.
Quick reminder: number only, in nM, skip the unit.

Notebook: pull reported IC50 for CK1ε (Homo sapiens (Human)), entry Cn1ccc(C(=O)Nc2cn3nc(-c4c(-c5ccc(F)cc5)nc5ccccn45)ccc3n2)n1
10.8

Notebook: pull reported IC50 for CK1ε (Homo sapiens (Human)), entry O=C(Nc1cn2nc(-c3c(-c4ccc(F)cc4)ncn3CC(=O)N3CCCC3)ccc2n1)c1ccnc(F)c1
8.38

Notebook: pull reported IC50 for CK1ε (Homo sapiens (Human)), entry CC(C)(C)c1cc(C(=O)Nc2cn3nc(-c4c(-c5ccc(F)cc5)nc5ccccn45)ccc3n2)ccn1
8.98

Notebook: pull reported IC50 for CK1ε (Homo sapiens (Human)), entry N#CCCN1CCC(n2cnc(-c3ccc(F)cc3)c2-c2ccc3nc(NC(=O)c4ccnc(F)c4)cn3n2)CC1
1.58

Notebook: pull reported IC50 for CK1ε (Homo sapiens (Human)), entry O=C(Nc1cn2nc(-c3c(-c4ccc(F)cc4)ncn3C3CCN(C(=O)c4ccon4)CC3)ccc2n1)c1cncs1
0.372

Notebook: pull reported IC50 for CK1ε (Homo sapiens (Human)), entry Cc1nc(-c2ccc(F)cc2)c(-c2ccc3nc(NC(=O)c4cccc5ccncc45)cn3n2)n1C
1.45

Notebook: pull reported IC50 for CK1ε (Homo sapiens (Human)), entry O=C(Nc1cn2nc(-c3c(-c4ccc(F)cc4)ncn3C3CCN(C[C@H](O)C(F)(F)F)CC3)ccc2n1)c1cc(F)nc(F)c1
0.796

Notebook: pull reported IC50 for CK1ε (Homo sapiens (Human)), entry CC(C)(F)C(=O)N1CCC(n2cnc(-c3ccc(F)cc3)c2-c2ccc3nc(NC(=O)c4ccnc(F)c4)cn3n2)CC1
0.798

Notebook: pull reported IC50 for CK1ε (Homo sapiens (Human)), entry O=C(Nc1cn2nc(-c3c(-c4ccc(F)cc4)ncn3C3CC3)ccc2n1)c1ccnc(N2CCOCC2)c1
9.1

Notebook: pull reported IC50 for CK1ε (Homo sapiens (Human)), entry Cc1nc(-c2ccc(Cl)cc2)c(-c2ccc3nc(NC(=O)c4ccnc(F)c4)cn3n2)n1C
10.2

Notebook: pull reported IC50 for CK1ε (Homo sapiens (Human)), entry Cc1nc(-c2cccnc2)sc1C(=O)Nc1cn2nc(-c3c(-c4ccc(F)cc4)ncn3C3CCN(CCC(F)(F)F)CC3)ccc2n1
3.88

Notebook: pull reported IC50 for CK1ε (Homo sapiens (Human)), entry O=C(Nc1cn2nc(-c3c(-c4ccc(F)cc4)ncn3C3CCN(Cc4ccon4)CC3)ccc2n1)c1ccncc1
0.298

Notebook: pull reported IC50 for CK1ε (Homo sapiens (Human)), entry O=C(Nc1cn2nc(-c3c(-c4ccc(F)cc4)ncn3C3CCN(CCC(F)(F)F)CC3)ccc2n1)c1cc(F)nc(F)c1
7.88

Notebook: pull reported IC50 for CK1ε (Homo sapiens (Human)), entry Cc1cc(C(=O)Nc2cn3nc(-c4c(-c5ccc(F)cc5)nc(C)n4C)ccc3n2)on1
4.94

Notebook: pull reported IC50 for CK1ε (Homo sapiens (Human)), entry O=C(Nc1cn2nc(-c3c(-c4ccc(F)cc4)ncn3C3CC3)ccc2n1)c1ccncc1
6.5

Notebook: pull reported IC50 for CK1ε (Homo sapiens (Human)), entry Cc1cc(Cn2cnc(-c3ccc(F)cc3)c2-c2ccc3nc(NC(=O)C(C)(C)C)cn3n2)no1
5.43

Notebook: pull reported IC50 for CK1ε (Homo sapiens (Human)), entry O=C(Nc1cn2nc(-c3c(-c4ccc(F)cc4)nc(C4CC4)n3C3CCN(C(=O)Nc4ccncc4)CC3)ccc2n1)c1ccnc(F)c1
6.03

Notebook: pull reported IC50 for CK1ε (Homo sapiens (Human)), entry Cc1nc(-c2ccc(F)cc2)c(-c2ccc3nc(NC(=O)c4cocn4)cn3n2)n1C
38.7

Notebook: pull reported IC50 for CK1ε (Homo sapiens (Human)), entry Cc1ccc(-c2nc(C)n(C)c2-c2ccc3nc(NC(=O)c4ccnc(F)c4)cn3n2)cc1
34.3

Notebook: pull reported IC50 for CK1ε (Homo sapiens (Human)), entry N#CCCN1CCC(n2c(C3CC3)nc(-c3ccc(F)cc3)c2-c2ccc3nc(NC(=O)c4ccnc(F)c4)cn3n2)CC1
2.86

Notebook: pull reported IC50 for CK1ε (Homo sapiens (Human)), entry O=C(Nc1cn2nc(-c3c(-c4ccc(F)cc4)ncn3-c3ccc(F)cc3)ccc2n1)c1cccc(-c2cccnc2)c1
18.5

Notebook: pull reported IC50 for CK1ε (Homo sapiens (Human)), entry Cc1nc(-c2ccc(F)cc2)c(-c2ccc3nc(NC(=O)c4c[nH]c5ncccc45)cn3n2)n1C
2.17

Notebook: pull reported IC50 for CK1ε (Homo sapiens (Human)), entry O=C(Nc1cn2nc(-c3c(-c4ccc(F)cc4)nc4n3CCN(C(=O)NC3CC3)C4)ccc2n1)c1ccnc(F)c1
3.9

Notebook: pull reported IC50 for CK1ε (Homo sapiens (Human)), entry CN1CC(n2cnc(-c3ccc(F)cc3)c2-c2ccc3nc(NC(=O)c4ccncc4)cn3n2)C1
2.73

Notebook: pull reported IC50 for CK1ε (Homo sapiens (Human)), entry CC(C)(C)Cn1cnc(-c2ccc(F)cc2)c1-c1ccc2nc(NC(=O)c3ccnc(F)c3)cn2n1
6.56

Notebook: pull reported IC50 for CK1ε (Homo sapiens (Human)), entry Cc1nc(-c2cccnc2)sc1C(=O)Nc1cn2nc(-c3c(-c4ccc(F)cc4)nc4ccccn34)ccc2n1
178

Notebook: pull reported IC50 for CK1ε (Homo sapiens (Human)), entry CN1CCC(n2cnc(-c3ccc(F)cc3)c2-c2ccc3nc(NC(=O)c4ccnc5ccccc45)cn3n2)CC1
3.27

Notebook: pull reported IC50 for CK1ε (Homo sapiens (Human)), entry Cc1nc(-c2ccc(F)cc2)c(-c2ccc3nc(NC(=O)c4ccnn4C)cn3n2)n1C
3.24

Notebook: pull reported IC50 for CK1ε (Homo sapiens (Human)), entry Cc1nc(-c2ccc(F)cc2)c(-c2ccc3nc(NC(=O)c4cc5cnccc5[nH]4)cn3n2)n1C
6.08

Notebook: pull reported IC50 for CK1ε (Homo sapiens (Human)), entry Cc1nc(-c2ccc(F)cc2)c(-c2ccc3nc(NC(=O)c4ccncc4)cn3n2)[nH]1
1.82
